tested on: CDKL2; conditions: concentration: 1 μM, replicates: in singlicate; n = 1;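 further: KINOMEscan kinase panel screen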
Form field: %Inh (one value per entry).
I only need the number, in %, no unit after it.

Example entries begin here.
In [3]: df
Out[3]:
                               given_smiles  quantity_unit  recorded_value
0  O=C(Nc1cccc(-c2nn3ncccc3c2-c2ccnc(Nc3cccc(C(F)(F)F)c3)n2)c1)c1c(F)cccc1F              %              14
1  Cc1cn2c(=O)cc(N3CCOCC3)nc2n1Cc1cccc(Cl)c1Cl              %               3
2  Cc1cccc(-c2nc(Nc3ccc4ncsc4c3)c3ccccc3n2)n1              %               0

Quick one: %Inh of `Cl.Oc1cccc(Nc2ccnc3cc(-c4ccncc4)ccc23)c1` ?
2

----------
system: PRKCD; details: concentration: 1 μM, replicates: in singlicate; n = 1
Recorded %Inh for the following molecules
Numbers only here, please. The scale is %.

>>> df
                                   molecule  recorded_value
0  COc1ccc(S(=O)(=O)NC2CCN(c3cc(C)nc(Nc4cccc(C#N)c4)n3)CC2)cc1.O=C(O)C(F)(F)F               0

I have this molecule here, `Nc1nc(-c2ccc3c(N)n[nH]c3c2)cc(N2CCCC2)n1` , and I need its recorded %Inh.
0

For the molecule `COCCNC(=O)c1ccc(-c2cc(C(=O)NC3CC3)cc(F)c2C)cc1` , what %Inh is on record?
15

Data request, read-out %Inh, for `Cc1nnc(-c2ccc(C)c(-c3ccc(C(=O)Nc4ccc(NS(C)(=O)=O)cc4)cc3)c2)o1`
0

%Inh for NCC(NC(=O)c1cc(-c2cn[nH]c2)c(-c2ccnc3[nH]ccc23)s1)c1ccccc1.O=C(O)C(F)(F)F.O=C(O)C(F)(F)F (centres unmarked) ?
99.8

----------
tested on: MEK3; construct: gene MAP2K3; settings: concentration: 1 μM, replicates: in singlicate; n = 1
Each entry below lists one item and its recorded %Inh value.

Solved cases below.
In [3]: df
Out[3]:
                                   molecule  recorded_value
0   Cc1cccc(Cn2ccn3c(=O)cc(N4CCOCC4)nc23)c1              0%
1  COc1cc(Nc2nccc(N3CCC(NC(=O)c4cccc(NC(C)=O)c4)C3)n2)cc(OC)c1OC (centres unmarked)              7%
2  O=C(Nc1cccc(-c2nn3ncccc3c2-c2ccnc(Nc3cccc(C(F)(F)F)c3)n2)c1)c1c(F)cccc1F              0%
3  COC(=O)Nc1nc2cc(Oc3ccc(NC(=O)Nc4cc(F)ccc4F)cc3)ccc2[nH]1.Cl              0%
4  NS(=O)(=O)c1cccc(-c2ccc3nccc(-c4cccc(S(N)(=O)=O)c4)c3c2)c1             38%
5  O=c1cc(N2CCOCC2)nc2n(Cc3cccc(Cl)c3Cl)c(C3CC3)nn12             22%

Sample Cc1nnc(-c2ccc3occ(-c4ccc(C(C)O)cc4)c3c2)o1 (centres unmarked) — what was its %Inh?
11%

Any idea what %Inh was measured for `Cc1cn2c(=O)cc(N3CCOCC3)nc2n1Cc1cccc(Cl)c1Cl` ?
0%

Quick one: %Inh of `Cc1c2ccc(N(C)c3ccnc(Nc4cccc(S(N)(=O)=O)c4)n3)cc2nn1Cc1ccccc1.Cl.Cl` ?
29%

Quick one: %Inh for `O=C(Nc1n[nH]c2cc(-c3cccc(F)c3)ccc12)C1CC1` ?
8%

Give the measured %Inh of Cc1c(Cn2c(C)nn3c(=O)cc(N4CCOC(C)C4)nc23)cccc1C(F)(F)F (centres unmarked) .
0%

# query: %Inh of entry `Cc1ccc(NC(=O)c2ccnc(N3CCN(C)CC3)c2)cc1-c1ccc(C(=O)NCC2CC2)cc1`
1%

Look up %Inh for this molecule: `C[C@@H](Oc1cc(-n2cnc3ccc(NC(=O)NC(C)(C)C)cc32)sc1C(N)=O)c1ccccc1Cl`
0%

----------
Quick reference for %Inh among some compounds
system: TLK2; conditions: concentration: 1 μM, replicates: in singlicate; n = 1
API: value field is a number in %; no unit string.

                                   compound  tested_system  measurement_kind  recorded_value
0  Cn1cc(-c2ccc3c(c2)CCN3C(=O)Cc2ccccc2Cl)c2c(N)ncnc21 [GSK2608885]           TLK2              %Inh               0
1  O=c1cc(N2CCOCC2)nc2n(Cc3cccc(C(F)(F)F)c3)ccn12 [GSK2297543]           TLK2              %Inh               3
2  CN1c2ccc(NCc3ccc(F)cc3)cc2-c2c(cnn2C)S1(=O)=O           TLK2              %Inh               0

Missing value: %Inh, TLK2, entry COc1ccc(Nc2nccc(N3CCC(NC(=O)Nc4cc(C)ccc4C)C3)n2)cc1 (centres unmarked) [GSK1379741] . Fill in?
0

For TLK2, provide %Inh of `COc1cc2c(cc1OCCN1CCN(C)CC1)ncc1c3ccc(C#N)cc3[nH]c21` please.
0

----------
We begin with a simple list: items and their reported %Inh.
tested on: CAMKK1; conditions: concentration: 1 μM, replicates: in singlicate; n = 1

>>> print(df.to_string())
                               given_smiles  recorded_value
0  Nc1nc(-c2ccc3c(N)n[nH]c3c2)cc(N2CCCC2)n1              0%
1  CN1c2ccc(NCc3ccc(F)cc3)cc2-c2c(cnn2C)S1(=O)=O              0%

--- query ---
// %Inh lookup, key: `c1ccc(-c2n[nH]cc2-c2ccnc3ccccc23)nc1`
17%

----------
system: CAMKK2; settings: concentration: 1 μM, replicates: in singlicate; n = 1
Listing of entries alongside the reported %Inh.
Please reply with the bare figure in % and do not write the unit itself.

Look up %Inh: COCCNC(=O)c1ccc(-c2cc(C(=O)NC3CC3)cc(F)c2C)cc1 [GW868318]
16

I am curious: what %Inh value has been reported for CC(=O)Nc1ccc(COc2ccc(Nc3ccnc4cc(-c5ccccn5)ccc34)cc2)cc1.Cl [GW440148] ?
26

Recorded %Inh of Fc1ccc(-c2nn3c(OCC(F)(F)F)cccc3c2-c2ccncc2)cc1 [GW514784] , please.
9

So what does the record say about %Inh for O=c1cc(N2CCOCC2)nc2n(Cc3cccc(Cl)c3Cl)c(C3CC3)nn12 [GSK2358994] ?
8

Suppose we examine the compound `Cn1ccc2ncnc(Oc3ccc(NC(=O)Nc4ccncc4)c(Cl)c3)c21` ; what %Inh value has been reported?
2

----------
test system: BRK; construct: gene PTK6; details: concentration: 1 μM, replicates: in singlicate; n = 1
Item-by-item account of %Inh
Write the value in % as a bare number.

In [3]: df
Out[3]:
                                   compound  measurement_kind  recorded_value
0  CC(C)Oc1ccc2c(-c3ccnc(Nc4ccc(N5CCN(C)CC5)cc4)n3)cnn2n1 [GW696155]              %Inh               6
1  COc1ccc(Nc2nccc(N3CCC(NC(=O)Nc4cccc(C(C)=O)c4)C3)n2)cc1 (centres unmarked) [GSK1379731]              %Inh               7
2  Fc1ccc(-c2ncn(CCCN3CCOCC3)c2-c2cccnc2)cc1 [SB-211743]              %Inh               0
3  Cc1cccc(-c2nc(Nc3ccc4ncsc4c3)c3ccccc3n2)n1 [GW867588]              %Inh               0
4  Nc1nccc(-c2c(-c3ccc(F)cc3)ncn2C2CCN(CC(F)(F)F)CC2)n1 [SB-236560]              %Inh               0
5            CNc1ncnc2[nH]ncc12 [SKF-18355]              %Inh               0
6  CC(=O)Nc1ccc(COc2ccc(Nc3ccnc4cc(-c5ccccn5)ccc34)cc2)cc1.Cl [GW440148]              %Inh              57
7  COc1ccc(CNC(=O)NC2CCN(c3ccnc(Nc4ccc(OC)cc4)n3)C2)cc1 (centres unmarked) [GSK1379727]              %Inh               9

Request - read-out %Inh | tested on BRK | compound Cc1c2ccc(N(C)c3ccnc(Nc4cccc(S(N)(=O)=O)c4)n3)cc2nn1Cc1ccccc1.Cl.Cl [GW787226]
89

// fetch BRK %Inh for NCC(NC(=O)c1cc(-c2cn[nH]c2)c(-c2ccnc3[nH]ccc23)s1)c1ccccc1.O=C(O)C(F)(F)F.O=C(O)C(F)(F)F (centres unmarked) [GSK1325775]
0

BRK / %Inh / `Cc1cccc(-c2nc(-c3ccc(S(C)(=O)=O)cc3)sc2-c2ccncc2)c1` : value?
0
